Target: ETS1 (UniProt P14921)
Sequence: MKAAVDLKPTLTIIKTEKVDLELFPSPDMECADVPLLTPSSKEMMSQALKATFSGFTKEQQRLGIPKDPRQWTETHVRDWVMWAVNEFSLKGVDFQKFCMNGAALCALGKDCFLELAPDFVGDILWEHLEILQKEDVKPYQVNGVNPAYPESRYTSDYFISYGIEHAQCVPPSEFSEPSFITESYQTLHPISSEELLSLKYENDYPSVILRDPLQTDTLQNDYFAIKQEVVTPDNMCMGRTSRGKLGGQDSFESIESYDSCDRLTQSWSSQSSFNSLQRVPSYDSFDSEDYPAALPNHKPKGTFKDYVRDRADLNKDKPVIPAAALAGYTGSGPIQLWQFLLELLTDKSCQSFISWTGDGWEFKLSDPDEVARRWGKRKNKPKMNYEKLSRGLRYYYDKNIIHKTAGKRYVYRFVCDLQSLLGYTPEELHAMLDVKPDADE
Assay: ETS1 binding intensity (PBM fluorescence), ETS1 alone (arbitrary fluorescence units); higher = stronger binding
Conditions: ETS1 concentration 1 nM; RUNX1 concentration 0 nM
MEASUREMENT LABEL: ETS1 binding intensity
Give bare numbers.

The following sequences have reported results that may help.
1) TATTCAGGCTTCCGGGTGATGTTTGTGGCCACCCGG :: 3800
2) TGGGGAGCAGGAAGCTGGGGGCGGTTGTGGAGGGAC :: 1130
3) AGCACCCCACATCCTGCACCCCACAACCCAGATCCC :: 510
4) CTTCCCTTGCCCCGGAAAAGGGCGGTAAGAGGGAGC :: 1200
5) GAAGTCACTCAGGGAGGAAACCACAGGGCCGGTCCG :: 466

Lab note: each sequence below needs its ETS1 binding intensity filled in.
1. GTGGGGCAGGATGTGCTTGCCTGGCTGCGGTTGGAC
2. GCGCGGGCAACTTCCGGTGTGGGTGACGAGTGGTGG
3. AAAGTAGGTCCGGTCCGCGGGTGCGGTCGGGCATGC
4. GAGGAGGCTGAGGAGGAAGTGCGGTGGCTGTTCTGC

[out]
[2170, 10900, 427, 1290]

* * *

molecular target: RUNX1 (UniProt Q01196); experiment: RUNX1 binding intensity (PBM fluorescence), RUNX1 alone (arbitrary fluorescence units); higher = stronger binding; settings: RUNX1 concentration 2 nM; ETS1 concentration 0 nM
Sequence (Q01196 whole entry): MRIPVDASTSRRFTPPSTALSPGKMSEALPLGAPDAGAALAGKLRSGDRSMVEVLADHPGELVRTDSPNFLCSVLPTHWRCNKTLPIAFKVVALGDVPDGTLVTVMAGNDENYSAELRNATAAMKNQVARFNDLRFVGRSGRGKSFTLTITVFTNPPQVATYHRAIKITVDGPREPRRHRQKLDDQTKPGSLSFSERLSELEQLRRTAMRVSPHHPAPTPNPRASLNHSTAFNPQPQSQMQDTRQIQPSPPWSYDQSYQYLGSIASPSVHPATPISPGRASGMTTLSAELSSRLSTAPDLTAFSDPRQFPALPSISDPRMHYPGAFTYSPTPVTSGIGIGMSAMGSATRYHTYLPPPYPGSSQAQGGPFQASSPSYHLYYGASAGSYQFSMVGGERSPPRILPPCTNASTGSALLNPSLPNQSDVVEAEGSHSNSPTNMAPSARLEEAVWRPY
MEASUREMENT LABEL: RUNX1 binding intensity
Numbers only.

1) GAGTACAGGAAATGCAAAGTAAAACCACAGTGAGAT :: 904
2) CAAGAGGAACCGGAACTTTGGAAACCACATTCTTAT :: 911
3) ACAAGAGGAAGTGAGTCTACCCATGATGCGGTCACA :: 891
4) CCCTCAGCGGAAGTGGAAGCTGTGGTTTCCAAAGGC :: 916
5) GCGATCGGAGCGGAAGTGGAGCTACCGCCACCGCCG :: 819

Lab note: each sequence below needs its RUNX1 binding intensity filled in.
1. TCCCGGCGTTCTTCCGCTGGCTCAGCCGCAAGTACC
2. TGGTTTCCGGGCTGGGGTTAGAATAGGCCACAAGGT
3. AACAGGCAAAGGACAGGATGTGGTGAGCGTCGGCCC
4. GGAACAGGAAAAGCCTCCGGCAGCCCCTGCGGGCGG
5. CCACTGCCGGAAGGGGAACTGTGGGGGTGCGCGAGT
6. AAATCCACTCAGAGGAAACCACAGGCCTGGCCCAGC

[out]
1: 818; 2: 787; 3: 774; 4: 719; 5: 820; 6: 1300

Lab note: each sequence below needs its RUNX1 binding intensity filled in.
1. AGAAAAGGAAATGGTGGGCTGCACACCACAGCTCAC
2. GGGATCCTTCCGCTCCGGGTTAACCCCGACCGCGCC
3. GGCGGATGGGGAGAAGAGAGTGGCTGTGGTCTCTGG
4. GCCGGTGAGGGCGGAAGTGGTAAGACTGACGTGTCC
5. GTTCTCAGCTTCCTGTTCACAGAGAAACCTCAGACA

[out]
728
795
861
709
946

Lab note: each sequence below needs its RUNX1 binding intensity filled in.
1. CAGCCGACTTCCGGGGTGGGGCTTGCTGCCGCAGAG
2. GTCTTAGGTCGGAAGTCTGTGGTCCCTGTTCACATG
3. CCTGAAGCTCATGCGGAAAACCCACAAAGGGGTGCC
4. GCTCCCGGATGTTCTGGGGATCTGCGGCCGCCTGGC
5. ACCAACCGGAAGTGATCGTGTTGTGGCCGAAGGAGG
6. ACTAGAAGCGGAAGTAGTTGTGGGCGCCTTTGCAAC
7. CTCTCTGGGCGGAAGGAACGCGGTCACCCTGAGAAA

[out]
1: 774; 2: 835; 3: 932; 4: 751; 5: 785; 6: 662; 7: 833

* * *

target: RUNX1 (UniProt Q01196); test: RUNX1 binding intensity (PBM fluorescence) in presence of ETS1, normalised to RUNX1-only experiment (arbitrary fluorescence units); higher = stronger binding; conditions: RUNX1 concentration 2 nM; ETS1 concentration 25 nM
We use 2000 as the dividing line for RUNX1 binding intensity: on or above the line is label 1, below is label 0.

1) ACATTCTTCCGGTTGGACCTCCGCGGTCAGCGCTGT :: label 1
2) ACAGATCCAAGGAAGCATATCCCGCAAGCAACTGTT :: label 0
3) AGGCAAACAGGATGTTCCTCTCCCACATGCAGACTT :: label 0
4) CCTGCAGCAACAGGATGTGGTTTGAAAGGATGAAAG :: label 1
5) GCAGCTGCAAACAGGAAACCACAGCAGCGTAGCGGA :: label 0

[in] # bool: RUNX1 binding intensity of ACACACTGACTTCCTGTTGTGGGAGATAAAGTGTGG >= 2000
[out] label 0

[in] # bool: RUNX1 binding intensity of GCACGCCATCGAGGAAGTGGGTTTACTGTGTATTTC >= 2000
[out] label 0

[in] # bool: RUNX1 binding intensity of AACTAAGTGCAGGGGAAGTTGTGGTTATTTTTTACC >= 2000
[out] label 0

[in] # bool: RUNX1 binding intensity of CCCACAGGAAATCCCCTGGTCTGTGGCGCCTCTGAT >= 2000
[out] label 0

[in] # bool: RUNX1 binding intensity of CAAGGTTCCTCCGCTTCCTGCCCGCAGGCCGAACCT >= 2000
[out] label 0

[in] # bool: RUNX1 binding intensity of ACACCCCAGGCAGGATGTGGTAGGGGTTGCCCCAGA >= 2000
[out] label 1

[in] # bool: RUNX1 binding intensity of CGAGCTCGGTGTTCCGCTTTTTGTGGGCCGGGTGGG >= 2000
[out] label 0

[in] # bool: RUNX1 binding intensity of GCATCATCACTTCCTGTTGTGGGCAGTCGTTGCCTG >= 2000
[out] label 1

* * *

Please respond with reported ETS1 binding intensity for every item in the list.
Target: ETS1 (UniProt P14921)
Sequence: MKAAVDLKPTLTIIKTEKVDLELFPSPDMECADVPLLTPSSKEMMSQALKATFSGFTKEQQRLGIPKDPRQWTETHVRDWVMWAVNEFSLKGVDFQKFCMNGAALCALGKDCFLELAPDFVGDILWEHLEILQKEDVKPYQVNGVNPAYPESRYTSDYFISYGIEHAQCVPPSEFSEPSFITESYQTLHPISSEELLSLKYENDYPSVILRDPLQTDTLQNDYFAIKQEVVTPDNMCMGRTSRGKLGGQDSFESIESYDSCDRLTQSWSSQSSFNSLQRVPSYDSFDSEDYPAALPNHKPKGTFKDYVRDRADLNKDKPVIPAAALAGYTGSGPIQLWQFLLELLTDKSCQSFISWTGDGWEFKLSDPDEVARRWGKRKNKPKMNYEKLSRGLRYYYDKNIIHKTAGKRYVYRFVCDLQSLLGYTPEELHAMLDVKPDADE
Assay: ETS1 binding intensity (PBM fluorescence) in presence of RUNX1, normalised to ETS1-only experiment (arbitrary fluorescence units); higher = stronger binding
Conditions: ETS1 concentration 1 nM; RUNX1 concentration 25 nM

1. TCCCGAGAGTGCGGCGGAAACCACGCGGCGCCGCCG :: 1570
2. TGAAGTTCAGGGGGAAGTGGTTAGAGTCCCTGCGAG :: 674
3. CCCCGTTACGCCCATCCGGCTCCCGCATAGGGCGTC :: 402
4. ACCACCCCCCGTTTCCTCCGAAGTGGTTGGTGCCTT :: 494
5. CCACCACTCTAAGCAGGATGCGGTGCGACCCAAGAG :: 2470

Lab note: each sequence below needs its ETS1 binding intensity filled in.
1. GCCCCGGAAGTGGCCCGGCTGTTGGCCGCAGCGGGA
2. AAGGCGGTACTTCCTCCAGCATTTGCCGCAAGTTAT

[out]
1. 3480
2. 535

Data provenance: the supplement of paper PMC10681739
